The measurements presented in this section are drawn from paper PMC11274883.

- Test system: MDA−MB−231 cells
- protocol.summary: Cellular uptake of Pt by ICP-MS
- Assay type: cell-based
- run.conditions: MDA−MB−231, 3 µM, 30 h
readout.name: Intracellular Concentration (nmol/10^6 cells)

compound="N.N.[Cl][Pt][Cl] [Cisplatin, cisplatin]" test_system="MDA−MB−231 cells" readout_name="Intracellular Concentration" reported_value=1.29
compound="Cc1cc2cccnc2c2ncccc12.N[C@H]1CCCC[C@@H]1N.O=[N+]([O-])[O-].O=[N+]([O-])[O-].[Pt+2] [Pt^II5MESS]" test_system="MDA−MB−231 cells" readout_name="Intracellular Concentration" reported_value=7.63
compound=N[C@H]1CCCC[C@@H]1N.O=[N+]([O-])[O-].O=[N+]([O-])[O-].[Pt+2].c1cnc2c(c1)ccc1cccnc12 test_system="MDA−MB−231 cells" readout_name="Intracellular Concentration" reported_value=4.79
compound=N[C@H]1CCCC[C@@H]1N.O=[N+]([O-])[O-].O=[N+]([O-])[O-].[OH-].[OH-].[Pt+4].c1cnc2c(c1)ccc1cccnc12 test_system="MDA−MB−231 cells" readout_name="Intracellular Concentration" reported_value=1.29
compound="Cc1c(C)c2cccnc2c2ncccc12.N[C@H]1CCCC[C@@H]1N.O=[N+]([O-])[O-].O=[N+]([O-])[O-].[OH][Pt+2][OH] [Pt^IV56MESS(OH)2]" test_system="MDA−MB−231 cells" readout_name="Intracellular Concentration" reported_value=4.19
compound="Cc1cc2cccnc2c2ncccc12.N[C@H]1CCCC[C@@H]1N.O=[N+]([O-])[O-].O=[N+]([O-])[O-].[OH][Pt+2][OH] [Pt^IV5MESS(OH)2]" test_system="MDA−MB−231 cells" readout_name="Intracellular Concentration" reported_value=2.37
compound="Cc1c(C)c2cccnc2c2ncccc12.N[C@H]1CCCC[C@@H]1N.O=[N+]([O-])[O-].O=[N+]([O-])[O-].[Pt+2] [Pt^II56MESS]" test_system="MDA−MB−231 cells" readout_name="Intracellular Concentration" reported_value=11.24
